meta.source: patent US20110142866A1

Tested on: IFN-γ secretion by T cells
measurement.description: IFN-γ ELISpot of spleen cells from immunized mice
Type: in vivo, SJL/J mice
Design: key: −: negative; +/−: very weak; +: weak; ++: moderate; +++: strong
particulars: Table 3; peptide analogues emulsified in complete Freund's adjuvant
measurement.name: IFN-γ

INSERT INTO measurements (substance, measurement_name, assay_value) VALUES
  ('E N P V V H F F E N I V T P R T P (ENPVVHFFENIVTPRTP) [[E^91]MBP83-99]', 'IFN-γ', '−'),
  ('E N P V V H F F A N I V T P R T P (ENPVVHFFANIVTPRTP) [[A^91]MBP83-99]', 'IFN-γ', '−'),
  ('E N P V V H F F R N I V T A R T P (ENPVVHFFRNIVTARTP) [[R^91, A^96]MBP83-99]', 'IFN-γ', '++'),
  ('E N P V V H F F Y N I V T P R T P (ENPVVHFFYNIVTPRTP) [[Y^91]MBP83-99]', 'IFN-γ', '−'),
  ('E N P V V H F F K N I V T P R T P (ENPVVHFFKNIVTPRTP) [MBP83-99, reference compound]', 'IFN-γ', '+'),
  ('cyclo(83-99)E N P V V H F F A N I V T P R T P (ENPVVHFFANIVTPRTP; cyclised or stapled) [cyclo(83-99)[A^91]MBP83-99]', 'IFN-γ', '−');

Q: For the substance E N P V V H F F F N I V T P R T P (ENPVVHFFFNIVTPRTP) [[F^91]MBP83-99] , report IFN-γ.
Result: ++
